Source listed as paper PMC9911399.

This section presents binders with their documented binding signal values.
Molecular target: T1, RBFOX1 RRM RbFoxmut (Fox-RRM*) (Homo sapiens, UniProt Q9NWB1 109-208, R118D;E147R;N151S;E152T)
T1 sequence: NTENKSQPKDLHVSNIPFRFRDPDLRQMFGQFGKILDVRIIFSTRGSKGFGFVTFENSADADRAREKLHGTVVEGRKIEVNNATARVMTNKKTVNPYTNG
Assay: EMSA; HiTS-Eq, 1 nM pool, 10 min; buffer printed only for the single-RNA assays: 10 mM Tris pH 7.5, 150 mM NaCl, 3.4 mM EDTA, 0.001% NP-40, 30 C
Details: tags: His6 N-terminal (pET28a); label: 5' 32P
Over roughly 16,000 sequences, “ka relative to ugcaugu” has its median near 0.096; the highest 2% begin near 0.35. This is one part of a sample in which the highest values are shown more often than they occur.

Binder | binding signal
UAGUCAA (DNA:RNA) RNA: GGGAGACCGGAAUUCAGAUUGUCCUAGUCAAUUAAAUCCCGUCGUAGCCACCA DNA 1: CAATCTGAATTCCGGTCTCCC DNA 2: TGGTGGCTACGACGGGATT | 0.0801 KA relative to UGCAUGU
UCGUUCG (DNA:RNA) RNA: GGGAGACCGGAAUUCAGAUUGUCCUCGUUCGUUAAAUCCCGUCGUAGCCACCA DNA 1: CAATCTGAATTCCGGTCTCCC DNA 2: TGGTGGCTACGACGGGATT | 0.218 KA relative to UGCAUGU
AAGUUCU (DNA:RNA) RNA: GGGAGACCGGAAUUCAGAUUGUCCAAGUUCUUUAAAUCCCGUCGUAGCCACCA DNA 1: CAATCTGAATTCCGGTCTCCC DNA 2: TGGTGGCTACGACGGGATT | 0.0763 KA relative to UGCAUGU
GAGUGUA (DNA:RNA) RNA: GGGAGACCGGAAUUCAGAUUGUCCGAGUGUAUUAAAUCCCGUCGUAGCCACCA DNA 1: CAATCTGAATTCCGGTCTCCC DNA 2: TGGTGGCTACGACGGGATT | 0.258 KA relative to UGCAUGU
